Target: Serine/threonine-protein kinase Sgk2 (Homo sapiens)
Details: at 1 µM
Description: GSK_PKIS: SGK2 mean inhibition at 1 uM [Nanosyn]
quantity: inhibition (%)
Report as a plain number; the unit % is understood.

Before answering, review these 5 worked examples.
compound	system_name	inhibition (%)
O=C1Nc2ccccc2/C1=C/Nc1ccc(-n2cncn2)cc1	Serine/threonine-protein kinase Sgk2 (Homo sapiens)	10.9
NS(=O)(=O)c1ccc(N/N=C2\C(=O)Nc3ccc(C(=O)NCCCn4ccnc4)cc32)cc1	Serine/threonine-protein kinase Sgk2 (Homo sapiens)	7.54
c1ccc(Oc2ccc(Nc3ncc(-c4ccccc4)o3)cc2)cc1	Serine/threonine-protein kinase Sgk2 (Homo sapiens)	2.79
NC(=O)c1cc(-c2ccncc2)cc(-c2ccccc2)c1N	Serine/threonine-protein kinase Sgk2 (Homo sapiens)	3.52
Cc1ccc(C(=O)NC(C)C)cc1-c1ccc(C(=O)NCC2CC2)cc1	Serine/threonine-protein kinase Sgk2 (Homo sapiens)	-7.09

Give a short answer stating reported inhibition for Fc1ccc(-c2nc3n(c2-c2ccncc2)CCS3)cc1 .
4.96

Give a short answer stating reported inhibition for COc1ccc2ncn(-c3cc(O[C@H](C)c4ccccc4Cl)c(C(N)=O)s3)c2c1 .
2.09

Give a short answer stating reported inhibition for CN(C)c1ccc2c(c1)/C(=C/Nc1ccc(S(N)(=O)=O)cc1)C(=O)N2 .
-1.11

Give a short answer stating reported inhibition for CCc1cccc(CC)c1/C=C/c1cncc(C(=O)NC)c1 .
-2.52

Give a short answer stating reported inhibition for COc1cc2ncn(-c3cc(OCc4cccs4)c(C(N)=O)s3)c2cc1OC .
10.6

Give a short answer stating reported inhibition for Nc1nccc(-c2c(-c3ccc(F)cc3)ncn2C2CCC(O)CC2)n1 (stereo unspecified) .
7.09

###

Target: Serine/threonine-protein kinase Sgk1 (Homo sapiens);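 further: mean percent inhibition of SGK1, from the GSK PKIS screening panel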
Conditions: at 1 µM
Measured inhibition, listed per entry for reference.
Report as a plain number; the unit % is understood.

Before answering, review these 2 worked examples.
compound	inhibition / %
Fc1ccc(-c2nc3n(c2-c2ccncc2)CCS3)cc1	4.66
COc1cc(N2CCN(C(C)C)CC2)ccc1Nc1nc(Nc2ccc(F)cc2C(=O)NC[C@@H](O)CO)c2cc[nH]c2n1	7.18

// moving on: another record for inhibition
# lookup: Serine/threonine-protein kinase Sgk1 (Homo sapiens) inhibition, key = NS(=O)(=O)c1ccc(Nc2cc(-c3ccc(O)c(F)c3)n[nH]2)cc1
3.11

###

Target: Homeodomain-interacting protein kinase 4 (Homo sapiens);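 further: values are mean percent inhibition of HIPK4 from the GSK PKIS kinase screen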
Sequence (whole entry): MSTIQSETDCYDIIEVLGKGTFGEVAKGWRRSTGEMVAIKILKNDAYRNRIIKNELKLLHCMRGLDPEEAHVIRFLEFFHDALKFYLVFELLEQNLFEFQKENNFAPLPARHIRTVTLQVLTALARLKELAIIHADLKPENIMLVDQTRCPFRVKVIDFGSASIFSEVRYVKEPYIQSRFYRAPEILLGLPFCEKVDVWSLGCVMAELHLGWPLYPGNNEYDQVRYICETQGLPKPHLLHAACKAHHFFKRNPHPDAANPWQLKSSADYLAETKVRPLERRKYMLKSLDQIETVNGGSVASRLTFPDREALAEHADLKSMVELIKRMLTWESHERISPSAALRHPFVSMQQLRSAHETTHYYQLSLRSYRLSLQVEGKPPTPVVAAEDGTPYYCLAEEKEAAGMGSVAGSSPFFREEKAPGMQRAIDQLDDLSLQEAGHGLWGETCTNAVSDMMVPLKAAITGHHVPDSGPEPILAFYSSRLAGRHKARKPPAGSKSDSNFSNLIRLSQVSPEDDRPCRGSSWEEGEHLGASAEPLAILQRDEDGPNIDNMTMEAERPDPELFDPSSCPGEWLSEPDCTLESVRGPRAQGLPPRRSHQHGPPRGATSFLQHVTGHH
Conditions: at 1 µM
quantity: inhibition (%)
Report as a plain number; the unit % is understood.

Before answering, review these 10 worked examples.
compound	inhibition, %
NS(=O)(=O)c1ccc(N/N=C2\C(=O)Nc3ccc(C(=O)NCCCn4ccnc4)cc32)cc1	17.6
COc1cc2ncn(-c3cc(OCCc4ccccc4)c(C(N)=O)s3)c2cc1OC	19.1
NC(=O)c1cc(-c2ccc(F)cc2)cc(-c2ccncc2)c1N	2.98
CS(=O)(=O)CCNCc1ccc(-c2ccc3ncnc(Nc4ccc(OCc5ccccc5)c(Br)c4)c3c2)o1	2.6
CCC(=O)Nc1ccc(C)c(-c2ccc(C(=O)NCC3CC3)cc2)c1	0.55
NCc1ccc(-n2c(-c3nonc3N)nc3cnccc32)cc1	5.32
CNC(=O)c1cncc(/C=C/c2c(C)cccc2C)c1	6.66
CN(C)CCCNc1nccc(-c2c(-c3ccc(F)cc3)nn3cc(C(F)(F)F)ccc23)n1	8.4
COc1ccc2cc(-c3c(-c4ccncc4)nc(-c4ccc(S(C)(=O)=O)cc4C)n3C)ccc2c1	1.88
O=C(Nc1ccc(Oc2ccc3[nH]c(NC(=O)c4ccccc4)nc3c2)cc1)Nc1cc(C(F)(F)F)ccc1F	47.7

Give a short answer stating reported inhibition for CCc1ccc(Oc2nccc(-c3c(-c4ccc(F)cc4)ncn3C3CCNCC3)n2)cc1 .
2.99

Give a short answer stating reported inhibition for COc1cccc(/C=N/Nc2ncnc3c2cnn3-c2cccc(OC)c2)c1 .
4.13

###

Target: CDK3/Cyclin E (Homo sapiens) (UniProt P24864+Q00526);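 further: each figure is a mean percent inhibition of the CDK3/cyclin E complex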
Sequence (P24864 whole entry, looked up): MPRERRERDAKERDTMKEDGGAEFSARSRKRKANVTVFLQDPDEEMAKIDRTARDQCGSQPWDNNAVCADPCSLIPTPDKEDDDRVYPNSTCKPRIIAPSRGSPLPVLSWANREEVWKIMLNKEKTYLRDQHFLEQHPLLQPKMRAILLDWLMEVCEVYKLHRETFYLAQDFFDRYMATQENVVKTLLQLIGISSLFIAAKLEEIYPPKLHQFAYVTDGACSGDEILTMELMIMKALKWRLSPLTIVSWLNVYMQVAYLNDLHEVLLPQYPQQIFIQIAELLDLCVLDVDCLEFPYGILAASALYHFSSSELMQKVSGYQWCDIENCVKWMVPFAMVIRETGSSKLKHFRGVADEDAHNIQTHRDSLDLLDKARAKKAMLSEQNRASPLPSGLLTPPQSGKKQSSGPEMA
Sequence (Q00526 whole entry, looked up): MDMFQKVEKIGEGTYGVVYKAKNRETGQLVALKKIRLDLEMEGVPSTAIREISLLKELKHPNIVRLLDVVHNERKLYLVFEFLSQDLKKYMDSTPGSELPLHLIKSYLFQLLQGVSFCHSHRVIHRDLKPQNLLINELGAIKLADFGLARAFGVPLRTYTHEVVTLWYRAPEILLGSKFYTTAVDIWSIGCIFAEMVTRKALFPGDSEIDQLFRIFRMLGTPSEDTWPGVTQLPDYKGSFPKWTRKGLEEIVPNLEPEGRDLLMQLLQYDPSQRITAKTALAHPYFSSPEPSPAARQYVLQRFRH
Conditions: at 1 µM
Measured inhibition, listed per entry for reference.
Report as a plain number; the unit % is understood.

molecular_string	system_name	inhibition / %
Fc1ccc(-c2c(-c3ccncc3)nc3n2CCS3)cc1	CDK3/Cyclin E (Homo sapiens) (UniProt P24864+Q00526)	-3.24
C[C@@H](Oc1cc(-n2cnc3ccc(OCC4CCN(C)CC4)cc32)sc1C(N)=O)c1ccccc1Cl	CDK3/Cyclin E (Homo sapiens) (UniProt P24864+Q00526)	-1.61

// moving on: another record for inhibition
Give a short answer stating reported inhibition for FC(F)(F)c1cccc(Nc2nccc(-c3cnn4nc(-c5ccccc5)ccc34)n2)c1 .
2.5

###

Measured inhibition, listed per entry for reference.
Target: Casein kinase I isoform gamma-1 (Homo sapiens) (UniProt Q9HCP0);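 further: reported value is the mean inhibition of CK1 gamma-1 kinase activity across replicate measurements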
Sequence (Q9HCP0 whole entry, looked up, canonical isoform): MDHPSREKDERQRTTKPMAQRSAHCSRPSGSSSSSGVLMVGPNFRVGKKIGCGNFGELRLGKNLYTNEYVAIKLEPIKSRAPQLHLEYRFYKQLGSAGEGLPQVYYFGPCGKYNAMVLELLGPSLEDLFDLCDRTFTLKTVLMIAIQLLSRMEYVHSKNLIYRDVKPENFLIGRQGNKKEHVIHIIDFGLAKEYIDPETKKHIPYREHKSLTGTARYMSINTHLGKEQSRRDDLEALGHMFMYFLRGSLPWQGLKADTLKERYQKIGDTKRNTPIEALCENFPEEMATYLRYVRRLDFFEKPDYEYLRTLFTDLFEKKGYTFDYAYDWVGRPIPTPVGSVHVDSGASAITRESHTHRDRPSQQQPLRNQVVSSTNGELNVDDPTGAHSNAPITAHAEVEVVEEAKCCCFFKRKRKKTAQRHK
Conditions: at 1 µM
Report as a plain number; the unit % is understood.

molecular_string	system_name	inhibition, %
CCS(=O)(=O)c1ccc(OC)c(Nc2ncc(-c3ccccc3Cl)o2)c1	Casein kinase I isoform gamma-1 (Homo sapiens) (UniProt Q9HCP0)	0.86
C/C(Nc1ccc(S(N)(=O)=O)cc1)=C1/C(=O)Nc2ccccc21	Casein kinase I isoform gamma-1 (Homo sapiens) (UniProt Q9HCP0)	6.33

// moving on: another record for inhibition
Give a short answer stating reported inhibition for O=C(Nc1n[nH]c2nc(-c3ccco3)ccc12)C1CC1 .
1.22

###

Measured inhibition, listed per entry for reference.
Target: Dual specificity tyrosine-phosphorylation-regulated kinase 2 (Homo sapiens);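 further: values are mean percent inhibition of DYRK2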
Details: at 0.1 µM
Mention the unit after the number when you answer.

molecular_string	system_name	reported
NS(=O)(=O)c1ccc(N/N=C2\C(=O)Nc3ccc(-c4cnco4)cc32)cc1	Dual specificity tyrosine-phosphorylation-regulated kinase 2 (Homo sapiens)	9.21%
Fc1ccc(-c2c(-c3ccncc3)nc3n2CCS3)cc1	Dual specificity tyrosine-phosphorylation-regulated kinase 2 (Homo sapiens)	1.26%
Cc1ccc(C(=O)NC(C)C)cc1-c1ccc(C(=O)NCC2CC2)cc1	Dual specificity tyrosine-phosphorylation-regulated kinase 2 (Homo sapiens)	-2.49%
COc1ccc(C2=C(N3CCc4ccccc43)C(=O)NC2=O)cc1	Dual specificity tyrosine-phosphorylation-regulated kinase 2 (Homo sapiens)	3.77%
NC(=O)c1cc(-c2ccc(F)cc2)cc(-c2ccncc2)c1N	Dual specificity tyrosine-phosphorylation-regulated kinase 2 (Homo sapiens)	3.58%

Give a short answer stating reported inhibition for O=C(Nc1ccc(Oc2ccc3[nH]c(NC(=O)c4ccccc4)nc3c2)cc1)Nc1cc(C(F)(F)F)ccc1F .
2.36%

Give a short answer stating reported inhibition for NS(=O)(=O)c1ccc(Nc2cc(-c3ccc(O)c(F)c3)n[nH]2)cc1 .
-2.19%

Give a short answer stating reported inhibition for COc1ccc(-c2ccc3c(NC(=O)C4CC4)n[nH]c3n2)cc1 .
1.19%

Give a short answer stating reported inhibition for CCS(=O)(=O)c1ccc(OC)c(Nc2ncc(-c3ccccc3Cl)o2)c1 .
1.98%

###

Molecular target: Serine/threonine-protein kinase B-raf (Homo sapiens);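 further: mean percent inhibition of BRAF kinase activity, from the GSK PKIS kinase inhibitor screening set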
Settings: at 0.1 µM
Measured inhibition, listed per entry for reference.
Report as a plain number; the unit % is understood.

Before answering, review these 2 worked examples.
compound	inhibition [%]
Fc1ccc(-c2c(-c3ccncc3)nc3n2CCS3)cc1	4.16
CN(C)CCOc1ccc(-c2cc(-c3ccc4c(c3)CCC4=NO)c(-c3ccncc3)o2)cc1	48.5

// moving on: another record for inhibition
Give a short answer stating reported inhibition for NCc1ccc(-n2c(-c3nonc3N)nc3cnccc32)cc1 .
7.22

###

Measured inhibition, listed per entry for reference.
Target: Tyrosine-protein kinase Srms (Homo sapiens);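 further: reported value is a mean of the inhibition readings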
Details: at 0.1 µM
Report as a plain number; the unit % is understood.

Give a short answer stating reported inhibition for CCS(=O)(=O)c1ccc(OC)c(Nc2ncc(-c3cccc(-c4ccccc4F)c3)o2)c1 .
8.12

Give a short answer stating reported inhibition for Nc1nccc(-c2c(-c3ccc(F)cc3)ncn2C2CCC(O)CC2)n1 (configuration not stated) .
-0.15

Give a short answer stating reported inhibition for COC(=O)Nc1nc2ccc(Sc3ccc(NC(=O)Nc4cc(C(F)(F)F)ccc4F)cc3)cc2[nH]1 .
1.2

Give a short answer stating reported inhibition for CN(c1ccc(NC(=O)Nc2c(Cl)cccc2Cl)cc1)c1ccnc(Nc2cccc(CS(C)(=O)=O)c2)n1 .
2.98

Give a short answer stating reported inhibition for CN(C)CCCNc1nccc(-c2c(-c3ccc(F)cc3)nn3cc(C(F)(F)F)ccc23)n1 .
0.42

Give a short answer stating reported inhibition for COc1ccc2cc(-c3c(-c4ccncc4)nc(-c4ccc(S(C)(=O)=O)cc4C)n3C)ccc2c1 .
1.11

Give a short answer stating reported inhibition for CS(=O)(=O)CCNCc1cc(-c2cc3c(Nc4ccc(OCc5cccc(F)c5)c(Cl)c4)ncnc3s2)cs1 .
-2.71

Give a short answer stating reported inhibition for COc1ccc2ncn(-c3cc(O[C@H](C)c4ccccc4Cl)c(C(N)=O)s3)c2c1 .
-3.68

Give a short answer stating reported inhibition for NC(=O)c1ccc(Oc2nccc(-c3c(-c4ccc(F)cc4)ncn3C3CCNCC3)n2)cc1 .
-3.65

Give a short answer stating reported inhibition for CCc1nccc2c1nc(-c1nonc1N)n2CC .
-1.58

Give a short answer stating reported inhibition for COc1ccc(C2=C(N3CCc4ccccc43)C(=O)NC2=O)cc1 .
7.78

Give a short answer stating reported inhibition for Cc1nnc(-c2ccc(C)c(-c3ccc(C(=O)NCc4ccc(Cl)cc4)cc3)c2)o1 .
-2.08

Give a short answer stating reported inhibition for CCc1ccc(Oc2nccc(-c3c(-c4ccc(F)cc4)ncn3C3CCNCC3)n2)cc1 .
-0.71

Give a short answer stating reported inhibition for O=C1NC(=O)C(c2cccc(Cl)c2)=C1Nc1ccc(Cl)c(C(=O)O)c1 .
0.43

Give a short answer stating reported inhibition for COc1ccc(-c2ccc3c(NC(=O)C4CC4)n[nH]c3n2)cc1 .
-2.79

Give a short answer stating reported inhibition for NC(=O)Cc1ccccc1Oc1nccc(-c2c(-c3ccc(F)cc3)ncn2C2CCNCC2)n1 .
-1.62

Give a short answer stating reported inhibition for NS(=O)(=O)c1ccc(Nc2cc(-c3ccc(O)c(F)c3)n[nH]2)cc1 .
-1.1

Give a short answer stating reported inhibition for c1ccc(-c2n[nH]cc2-c2ccnc(-c3ccc(OCCN4CCOCC4)cc3)c2)nc1 .
4.69
